Target: T1, 4H338-bH
T1 chain: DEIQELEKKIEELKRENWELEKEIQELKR
Assay: two-hybrid library CCNG1;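 note: natural log of median RNA to DNA barcode read ratio; higher means stronger binding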
Observable: interaction score

| Binder | Observable | Reported |
| --- | --- | --- |
| DKIQELKKEIEELKRKIWELKKENQELER [4H2667-bH] | interaction score | 1.42 |
| DKNQELEKKIEELERENWELKKEIQELKR [4H3354-bH] | interaction score | 0.838 |
| DENQELKKKIEELERKIWELEKENQELKR [4H1828-bH] | interaction score | 1.16 |
| DENQELKKKIEELERKNWELEKKIQELER [4H1845-bH] | interaction score | -0.243 |
| DENQELEKENEELKRKIWELKKEIQELER [4H1257-bH] | interaction score | -0.528 |
| DKIQELEKKNEELEREIWELKKEIQELKR [4H2442-bH] | interaction score | 0.526 |
| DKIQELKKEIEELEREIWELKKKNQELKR [4H2576-bH] | interaction score | 0.794 |
